- Assay Method Text: AUC (0 to 24 hrs) in 12 week old non-fasted Crl:CD(SD) rat at 2.5 mg/kg, po after 24 hrs by HPLC
- Format: ADME, organism-based
- Parameters: time < 24 hr, dose 2.5 mg/kg, route oral
- Conditions: plasma
Value Kind: AUC(0-t) at 24 h

                                   molecule        value_kind  endpoint_result
0  CCC(CC)(NC(=O)c1c(C)nn2c1N[C@@H](c1ccccc1)CC2(C)C)c1ccc(C(C)O)cc1 (stereo partly drawn)  AUC(0-t) at 24 h      805 ng·h/mL
1  CCc1ccc(C(CC)(CC)NC(=O)c2c(C)nn3c2N[C@@H](c2ccccc2)CC3(C)C)cc1.Cc1ccc(S(=O)(=O)O)cc1  AUC(0-t) at 24 h      247 ng·h/mL
2  CCC(CC)(NC(=O)c1c(C)nn2c1N[C@@H](c1ccccc1)CC2(C)C)c1ccc(C(C)=O)cc1  AUC(0-t) at 24 h      879 ng·h/mL
